The reader will find reported GI50 values listed item by item below.
# Tested on: HT-29
# assay.protocol: NCI tumour cell line growth inhibition, 48 h
Active and inactive are the calls of the source. Cut-off read from the data, not from the text of the source: active = GI50 up to about 1.1 µM and inactive = higher.

compound | GI50
CCCCCCCC1(N=[N+]=[N-])C(=O)c2ccccc2N(C)C1=O (centres undefined) | 40.1 µM (inactive)
COc1ccc(C(=O)/C=C/c2ccc(OCCCOc3ccc(/C=C/C(=O)c4ccc(OC)cc4)cc3)cc2)cc1 | 56.1 µM (inactive)
COc1c(-c2ccc(F)cc2)oc2cc(O)cc(O)c2c1=O | 22.7 µM (inactive)
CC(=O)OC1C(=O)C(O)C(C)OC1O[C@@H]1C[C@@]2(C)[C@@H]3CC=C4[C@@H](C[C@H](O)C(=O)C4(C)C)[C@]3(C)C(=O)C[C@]2(C)[C@H]1[C@@](C)(O)C(=O)/C=C/C(C)(C)O (some centres undefined) | 1.35 µM (inactive)
